Target: T1, human tissue factor pathway inhibitor (TFPI) (human, UniProt P10646 29-304, limits assumed)
T1 construct: bought; also called hTFPI; human TFPI
T1 sequence (looked up): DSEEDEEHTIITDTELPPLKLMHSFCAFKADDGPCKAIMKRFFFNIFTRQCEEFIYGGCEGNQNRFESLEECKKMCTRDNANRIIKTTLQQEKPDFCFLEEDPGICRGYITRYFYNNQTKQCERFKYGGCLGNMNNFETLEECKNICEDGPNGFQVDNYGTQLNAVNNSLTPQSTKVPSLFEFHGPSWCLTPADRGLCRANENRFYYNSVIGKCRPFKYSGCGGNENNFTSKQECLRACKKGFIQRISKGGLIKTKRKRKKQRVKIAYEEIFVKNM
Experiment: competitive ELISA
This section presents binders with their documented variant/wild-type values.

{"columns": ["BINDER", "variant/wild-type (ratio)"],
 "data": [
  ["2A8 HC_S55A (Fab, V domains shown) VH: QVQLVESGGGLVQPGGSLRLSCAASGFTFRSYGMSWVRQAPGKGLEWVSSIRGSASSTYYADSVKGRFTISRDNSKNTLYLQMNSLRAEDTAVYYCARKYRYWFDYWGQGTLVTVSS VL: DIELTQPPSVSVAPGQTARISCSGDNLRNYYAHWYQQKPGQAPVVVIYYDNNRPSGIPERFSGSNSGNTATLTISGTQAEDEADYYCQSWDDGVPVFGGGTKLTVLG", 2],
  ["2A8 HC_S54F (Fab, V domains shown, also called 2A8-7) VH: QVQLVESGGGLVQPGGSLRLSCAASGFTFRSYGMSWVRQAPGKGLEWVSSIRGFSSSTYYADSVKGRFTISRDNSKNTLYLQMNSLRAEDTAVYYCARKYRYWFDYWGQGTLVTVSS VL: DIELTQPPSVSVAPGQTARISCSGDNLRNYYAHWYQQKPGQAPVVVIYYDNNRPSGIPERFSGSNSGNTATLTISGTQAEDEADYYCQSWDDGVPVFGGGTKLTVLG", 6.5],
  ["2A8 HC_K99L (Fab, V domains shown, also called 2A8-9) VH: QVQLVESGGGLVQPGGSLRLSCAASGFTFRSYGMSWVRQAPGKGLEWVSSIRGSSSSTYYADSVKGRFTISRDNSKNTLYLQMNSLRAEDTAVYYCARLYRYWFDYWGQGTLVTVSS VL: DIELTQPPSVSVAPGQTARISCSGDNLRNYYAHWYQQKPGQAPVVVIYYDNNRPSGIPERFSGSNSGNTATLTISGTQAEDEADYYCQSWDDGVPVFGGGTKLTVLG", 13.5]
]}
